Entries and their Kd values follow.
TARGET SYSTEM: T1, PUF4 RNA-binding domain (Saccharomyces cerevisiae, UniProt P25339 537-888)
T1 sequence: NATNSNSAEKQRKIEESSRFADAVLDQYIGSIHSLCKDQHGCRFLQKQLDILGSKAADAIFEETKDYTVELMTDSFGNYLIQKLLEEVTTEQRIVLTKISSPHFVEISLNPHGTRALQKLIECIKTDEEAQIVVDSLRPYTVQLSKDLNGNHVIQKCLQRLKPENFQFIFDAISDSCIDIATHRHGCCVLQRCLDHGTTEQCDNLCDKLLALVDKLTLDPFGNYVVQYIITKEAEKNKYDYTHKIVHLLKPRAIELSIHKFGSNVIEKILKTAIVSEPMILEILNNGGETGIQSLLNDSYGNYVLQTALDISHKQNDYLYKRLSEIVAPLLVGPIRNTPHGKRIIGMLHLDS
EXPERIMENT NOTES: Mg; RNA-MaP; 20 mM Na-HEPES pH 7.4, 30 mM KOAc, 0.75 mM MgCl2, 0.1% Tween-20, 5% glycerol, 0.1 mg/mL BSA, 2 mM DTT; 25 C; 0.0125-409.6 nM protein
APPLIED CONDITIONS: tags: N-His6-TEV cleaved; C-SNAP kept, Cy3B-labelled; label: tethered on chip by stalled RNA polymerase

Before answering, review these 5 worked examples.
BINDER	Kd
Id_ii_S2_P4E.3_K4.2_C4.2_[T-1A]_H4.2_A4.1_F4.1_T4.2_[G10A]_[T11G] (ssRNA) RNA: UUUGAUUAAUAUGAUAUCGUUCUUUCUCAUAUAUAUUAAGUUCUUUCUCGAUAUCAUAUUAAUCUUU	360 nM
ACAAACUGAAUCUAACAAAC (ssRNA) [Ib_S3_P3E.1_K3.1_C3.1_H3.1_[T3A]_A3.1_[A6C]_F3.1_T3.1]	> 2300 nM
Ie_S4_P5E.1_K5.1_C5.1_H5.1_[+4TCC]_A5.1_F5.1_T5.1 (ssRNA) RNA: UUUGACAACUGAUCGUUCUUUCUUGUAUCCUUAUUAUUCUUUCUCGAUCAGUUGUCUUU	6.26 nM
UCUCUUUGUACGAUAUCUCUU (ssRNA) [Ic_S1_P4E.1_K4.1_C4.1_H4.1_A4.1_[T5C]_[A6G]_[T7A]_F4.1_T4.1]	2.75 nM
UCUCUUAGUACUAUUAUCUCUU (ssRNA) [Ib_S1_P5E.1_K5.1_C5.1_H5.1_[T1A]_A5.1_[T5C]_F5.1_T5.1]	1400 nM

Then this binder:
Query: Give me measured Kd, please, for this binder: Ib_S2_P3E.1_K3.1_C3.1_H3.1_[T1C]_A3.1_F3.1_[T7C]_T3.1 (ssRNA) RNA: UUUGAUUAAUAUGAUAUCGUUCUUUCUCGUAUACAUUCUUUCUCGAUAUCAUAUUAAUCUUU
Response: 649 nM
